Could you please report measured TGI for the items listed next?
# System: SW-620 colon
# protocol-text: NCI tumour cell line growth inhibition, 48 h
Where a SMILES comes first, the peptide text is derived from it. The star is where a group is joined. Boc = CC(C)(C)OC(=O)*; OSu = O=C1CCC(=O)N1O*

Using the record for `CCOC(=O)c1ccc(Nc2c3c(nc4ccccc24)CCCC3)cc1` , report its TGI. > 100 µM

Using the record for Cc1[nH]c2ccccc2c1C(=O)CC1(O)C(=O)Nc2ccccc21 (stereo not given) , report its TGI. > 100 µM

Using the record for CCCCc1ccc(Nc2nc3c(ncn3C3CC(O)C(CN=[N+]=[N-])O3)c(=O)[nH]2)cc1 (stereo not given) , report its TGI. > 100 µM

Using the record for `Cc1nc(Nc2ccc(Cl)cc2)sc1C(=O)NNc1ccc([N+](=O)[O-])cc1[N+](=O)[O-]` , report its TGI. 43.5 µM

Using the record for Cc1ccc(C)c2c1C(O)(C#Cc1ccccc1)c1ccccc1C2(O)C#Cc1ccccc1 (stereo not given) , report its TGI. > 100 µM

Using the record for CC(NC(=O)C(NC(=O)OC(C)(C)C)C(C)C)C(=O)NCC(=O)ON1C(=O)CCC1=O (stereo not drawn) (Boc-Val-Ala-Gly-OSu; configuration not given here) , report its TGI. > 100 µM

Using the record for `N[C@H](C(=O)O)[C@H]1ON=C(Cl)[C@@H]1O` , report its TGI. > 550 µM

Using the record for `Cc1cc(=O)oc2cc(OC(=O)N(C)C)c(Cl)cc12` , report its TGI. > 100 µM

Using the record for NC(CCCC(N)P(=O)(O)c1ccccc1)P(=O)(O)c1ccccc1 (stereo not given) , report its TGI. > 261 µM

Using the record for Cc1ccc(NC(=O)C2C(=O)N(c3ccc(C)cc3)C(=O)/C2=N\NC(N)=S)cc1 (stereo not given) , report its TGI. > 100 µM

----------
# System: UACC-257 melanoma
# protocol-text: NCI tumour cell line growth inhibition, 48 h
readout-name: GI50

Using the record for `Fc1ccc2[nH]cc(-c3nonc3-c3c[nH]c4ccc(Br)cc34)c2c1` , report its GI50. 4.17 µM

Using the record for `COc1cc(OC)cc(N(CCNC(C)C)c2ccc3ncc(-c4cnn(C)c4)nc3c2)c1` , report its GI50. 9.49 µM

Using the record for `CNC(=O)c1ccc(N2CCN(Cc3ccc4nc(C)c(=O)[nH]c4c3F)CC2)c(F)n1` , report its GI50. > 100 µM

Using the record for `CN(C)CCCNC(=O)c1cc(NC(=O)c2cc(NC(=O)CCc3c[nH]c4ccccc34)cn2C)cn1C` , report its GI50. > 100 µM

Using the record for `CCN(Cc1cccc(F)c1)c1ccc(CO)c(Cl)c1` , report its GI50. 0.114 µM

Using the record for `O=C(Nc1cccc(-n2ccc3c(NC(=O)c4ccccc4)nccc32)c1)Nc1cc(C(F)(F)F)cc(C(F)(F)F)c1` , report its GI50. 2.45 µM

Using the record for `CN(C)CCCOc1ccc(-c2ccc3ncc4c(c3c2)n(C2CCOCC2)c(=O)n4C)cn1` , report its GI50. 1.94 µM

Using the record for `[Cl][Hg][Cl]` , report its GI50. 17.7 µM

Using the record for CCC[CH2][Sn]1([CH2]CCC)[O]CC(Cc2ccccc2)[O]1 (stereo unspecified) , report its GI50. 1.88 µM

Using the record for `C#CCOc1cccc(-c2ncnc3cc(NC(=O)CCl)ccc23)c1` , report its GI50. 1.64 µM

Using the record for `COc1cc(/C=C2\C(=O)Nc3cc(C)c(O)cc32)cc(OC)c1OC` , report its GI50. 13.5 µM
